Each entry below carries its reported TGI.
- Tested on: MALME-3M melanoma
- assay.comment: NCI tumour cell line growth inhibition, 48 h
# unit: µM | format: bare number

Below are worked cases with known answers.
molecule | parameter | quantitative.result
COc1ccc2cc(-c3cc4c(oc3=O)-c3ccccc3OC4O)c(=O)oc2c1 (stereo unspecified) | TGI | 36.8
COC(=O)[C@]12CC[C@@H](C)[C@H](C)[C@@H]1C1=CC[C@@H]3[C@@]4(C)C(C=O)=C[C@@](C)(COC(C)=O)C4=CC[C@@]3(C)[C@]1(C)CC2 | TGI | 15.5

Consider now this further molecule.
QUERY: I'd like to know its TGI. The molecule in question is `Clc1ccc2c(c1)N(CCCN1CCCC1)c1ccccc1S2`
RESULT: 18.5

----------
Reported GI50 values follow for various compounds
- Test system: MALME-3M melanoma
- assay.comment: NCI tumour cell line growth inhibition, 48 h

The following compounds have reported results that may help.
compound | test.system | result
O=C1C(=O)c2c(nc3ccc(Br)cn23)-c2ccccc21 | MALME-3M melanoma | 0.19 µM
COc1ccc2c(CN3CCC(C(=O)O)CC3)cc3cc4c(cc3c2c1)OCO4 | MALME-3M melanoma | 1.58 µM

QUERY: Fill in: GI50 of `COC(=O)[C@]12CC[C@@H](C)[C@H](C)[C@@H]1C1=CC[C@@H]3[C@@]4(C)C(C=O)=C[C@@](C)(COC(C)=O)C4=CC[C@@]3(C)[C@]1(C)CC2` is ___
RESULT: 3.74 µM

----------
- Test system: MOLT-4 leukemia
- assay.comment: NCI tumour cell line growth inhibition, 48 h
parameter: TGI (µM)
State the answer as a number, implicitly in µM.

Answered examples (2):
smiles.text | TGI (µM)
Cc1ccc(N=Nc2ccc(O)c(CN(C)C)c2)cc1 | 53.4
COc1cc(OC)c(/C=C\c2cc(/C=C/c3c(OC)cc(OC)cc3OC)c3ccccc3[n+]2C)c(OC)c1 | 5.48

Next up:
QUERY: Entry under review: `CN(Cc1cc(Br)cc(Br)c1O)Cc1cc(Br)cc(Br)c1O` . Reported TGI?
RESULT: 36.3

----------
- Test system: NCI/ADR-RES ovarian
- assay.comment: NCI tumour cell line growth inhibition, 48 h; in the data active = GI50 below about 0.43 µM; inactive = the rest
Result category, one only: active, inactive

compound | qualitative.label
NC1CCC(Nc2nc(NCc3ccc(-c4cccs4)nc3)c3ncn(C4CCCC4)c3n2)CC1 (stereo unspecified) | active
CCOC(=O)c1c(C)n2c(=O)cc(C)c3c(O)c(O)cc1c32 | inactive
COc1ccc2c(CN3CCC(C(=O)O)CC3)cc3cc4c(cc3c2c1)OCO4 | inactive
O=C1c2nsnc2C(=O)c2c(F)c(F)c(F)c(F)c21 | inactive
CC(C)(C)C(=O)OCOP(=O)(OCOC(=O)C(C)(C)C)C1CC(O)N(O)C1=O (stereo unspecified) | inactive

QUERY: Hey, what did the test say about O=C(/C(=C\c1ccc([N+](=O)[O-])cc1)S(=O)Cc1ccc(F)cc1)c1ccc(F)cc1 (stereo unspecified) ?
RESULT: inactive

QUERY: Look up the recorded call for `COc1cc2nc(SCC(=O)Nc3cc(OC)c(OC)c(OC)c3)n(Cc3ccccc3)c(=O)c2cc1OC` in this test.
RESULT: inactive

QUERY: What is the recorded call for this compound in the test? `Nc1nc(OCc2cc(Br)cs2)c2[nH]cnc2n1`
RESULT: inactive

----------
- System: SN12C renal
- assay.comment: NCI tumour cell line growth inhibition, 48 h
// TGI lookup, one value per entry

compound | TGI
CC(=O)c1ccc(OCC(O)CO)cc1 (centres undefined) | > 100 µM
CCCC(=O)NC1CCc2cc(OC)c(OC)c(OC)c2-c2ccc(OC)c(=O)cc21 (centres undefined) | > 100 µM
COC1=CCC=C(C[C@@H]2NCCc3cc(OC)c(OC)cc32)C1 | > 100 µM

QUERY: State the recorded TGI for this entry: `CC(=O)CSc1c(-c2ccccc2)c(=O)n(-c2ccccc2)c(=S)n1-c1ccccc1`
RESULT: > 100 µM

QUERY: Return reported TGI; argument: CC1(C)C(O)C[C@@H](O)[C@@]2(C)C1CC[C@]1(C)C2C[C@@H](O)[C@@H]2C([C@@]3(C)CC[C@@H](C(C)(C)O)O3)CCC21C (some centres undefined)
RESULT: 26.9 µM

QUERY: Need TGI of `O=C(c1ccccc1)c1ccc(-n2c3ccccc3c3ccc4c(c32)C(=O)C=CC4=O)cc1` , thanks.
RESULT: 28.3 µM

QUERY: So what does the record say about TGI for NC1CCC(Nc2nc(NCc3ccc(-c4cccs4)nc3)c3ncn(C4CCCC4)c3n2)CC1 (centres undefined) ?
RESULT: 1.81 µM

QUERY: Please report the recorded TGI for `CCc1c(Cc2[nH]c(Cc3[nH]c(C=O)c(C)c3CC)c(CC)c2CC)[nH]c(C=O)c1C` .
RESULT: > 100 µM

QUERY: Given the compound CC1C[C@H](C)CC(C(O)CC2CC(=O)N(Cc3ccccc3)C(=O)C2)C1O (some centres undefined) , what is its reported TGI?
RESULT: > 100 µM

----------
- System: SNB-75 CNS
- assay.comment: NCI tumour cell line growth inhibition, 48 h
parameter: TGI (µM)
// return numeric value only (unit: µM, not printed)

QUERY: Any idea what TGI was measured for C=CC(C1=CC(=O)C(OC)=CC1=O)c1ccccc1 (stereo not drawn) ?
RESULT: 39.1

QUERY: Need TGI, item `Nc1nc(OCc2cc(Br)cs2)c2[nH]cnc2n1`
RESULT: 90.2

----------
# TGI per record follows
- Tested on: MDA-N
- assay.comment: NCI tumour cell line growth inhibition, 48 h

Example entries begin here.
compound | TGI
CCC[C@H](NS(=O)c1ccc(C)cc1)C(C(=O)OCC)=C(c1ccccc1)c1ccccc1 (stereo partly specified) | 43.2 µM
C[C@]12CC/C(=N\O)C=C1CC[C@@H]1[C@@H]2CC[C@]2(C)C(=N/O)/C(=C/c3ccc([N+](=O)[O-])cc3)C[C@@H]12 | 85 µM

QUERY: Value wanted: TGI (MDA-N) of entry S=C1CC(c2ccccc2)Sc2ccccc2N1 (stereo unspecified)
RESULT: > 100 µM

QUERY: Please state recorded TGI (tested on MDA-N) of `COCCCNC(=O)C1=C(C)NC(C)=C(C(=O)NCCCOC)C1`
RESULT: > 100 µM

QUERY: Return TGI measured with MDA-N given this compound: `C=CCSC1=N/C(=C\c2cccs2)C(=O)N1CC=C`
RESULT: > 100 µM

QUERY: So what TGI did `CN(NC(=O)c1cccs1)C1=NCCCCN1` get with MDA-N?
RESULT: > 100 µM

QUERY: Return TGI measured with MDA-N given this compound: `NC(=S)N/N=C1\NC(=O)/C(=C/c2ccc3c(c2)OCO3)S1`
RESULT: 97.9 µM

QUERY: Write down the reported TGI of `NCCN1C(=O)CN=C(c2ccc(Cl)cc2)c2cc(Cl)ccc21` , test system: MDA-N.
RESULT: 31.4 µM

QUERY: Enter reported TGI observed with MDA-N for `O=C(N=Nc1cccc(Cl)c1)NNc1cccc(Cl)c1`
RESULT: 31.2 µM

QUERY: Missing value: TGI, MDA-N, entry Nc1ccn(C2CCC(CO)O2)c(=S)n1 (stereo unspecified) . Fill in?
RESULT: > 100 µM

QUERY: Quick check: TGI on MDA-N, item CCCCC(Sc1cc(Cl)c(C)cc1S(=O)(=O)Nc1n[nH]c(N)n1)C(=O)OC (stereo unspecified) ?
RESULT: > 10 µM

----------
- Tested on: SK-MEL-28 melanoma
- assay.comment: NCI tumour cell line growth inhibition, 48 h
So basically: TGI at 40 µM or higher? That is 1. Lower than 40 µM? That is -1.

Previously resolved entries follow.
compound | qualitative.label
O=C(CN(/C=C/C(=O)C(F)(F)F)c1ccc(Cl)cc1)c1ccccc1 | -1
N#C/C(C(=O)Nc1ccc(Cl)cc1)=C(/N)N1CCCCC1 | 1
O=C(c1ccccc1)c1ccc(-n2c3ccccc3c3ccc4c(c32)C(=O)C=CC4=O)cc1 | -1
COC1CCN(C(=O)c2cc(Cc3n[nH]c(=O)c4ccccc34)ccc2F)CC1 | 1
COc1ccc(C(=O)c2cc(OC)c(OC)c(OC)c2)cc1/C=C/C(=O)c1ccc(OC)c(OC)c1 | 1
COc1cc2cccc(N)c2cc1OC | 1
CCCCCCCCCCCCCC1=NCCN1CCO | -1
C/C=C/C1=CC(=O)C(O)C1O (stereo unspecified) | 1
COc1ccc2c(CN3CCC(C(=O)O)CC3)cc3cc4c(cc3c2c1)OCO4 | -1

QUERY: Please check the record CC(NC(=O)C(N)CC(=O)O)NC(=O)C1CCC1 (stereo unspecified) and state if its TGI is at or above 40 µM.
RESULT: 1

Ref: PubChem BioAssay (NCI)
